Reference for the values: patent US11459338B2

Catalogue of compounds with associated pIC50
# target.or.test.system: PRMT5/MEP50 (Homo sapiens, UniProt O14744)
# Construct: Full-length human PRMT5 (NP_006100)
# Sequence (O14744 whole entry): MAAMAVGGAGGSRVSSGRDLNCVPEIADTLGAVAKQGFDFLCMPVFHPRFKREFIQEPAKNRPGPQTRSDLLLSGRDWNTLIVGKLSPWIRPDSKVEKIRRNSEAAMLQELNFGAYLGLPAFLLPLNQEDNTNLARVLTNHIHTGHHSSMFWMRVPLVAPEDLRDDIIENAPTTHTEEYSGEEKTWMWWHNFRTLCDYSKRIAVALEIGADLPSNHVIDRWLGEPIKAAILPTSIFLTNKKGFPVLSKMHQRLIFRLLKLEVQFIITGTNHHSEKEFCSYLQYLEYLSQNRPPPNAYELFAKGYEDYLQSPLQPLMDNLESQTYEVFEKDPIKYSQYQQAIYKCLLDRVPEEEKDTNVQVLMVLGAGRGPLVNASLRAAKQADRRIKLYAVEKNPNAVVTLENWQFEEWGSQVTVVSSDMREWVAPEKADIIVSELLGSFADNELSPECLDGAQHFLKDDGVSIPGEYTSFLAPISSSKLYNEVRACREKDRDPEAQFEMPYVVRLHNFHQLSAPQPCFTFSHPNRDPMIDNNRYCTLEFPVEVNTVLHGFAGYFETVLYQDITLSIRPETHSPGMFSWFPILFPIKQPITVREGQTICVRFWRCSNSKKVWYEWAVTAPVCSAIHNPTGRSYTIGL
# Sequence (Q9BQA1 whole entry partner): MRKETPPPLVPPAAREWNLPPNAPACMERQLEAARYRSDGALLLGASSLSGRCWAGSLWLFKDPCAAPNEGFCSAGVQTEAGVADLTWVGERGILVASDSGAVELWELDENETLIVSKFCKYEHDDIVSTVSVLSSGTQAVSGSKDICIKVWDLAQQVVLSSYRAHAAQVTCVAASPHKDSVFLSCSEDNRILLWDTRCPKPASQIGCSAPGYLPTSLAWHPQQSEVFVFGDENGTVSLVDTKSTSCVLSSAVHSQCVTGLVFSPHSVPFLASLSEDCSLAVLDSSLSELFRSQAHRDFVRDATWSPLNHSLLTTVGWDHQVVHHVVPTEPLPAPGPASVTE
# experimental.details: PRMT5/MEP50 enzyme assay on peptide substrates (3H-SAM Flashplate)
# condition.parameters: PRMT5/MEP50 10 nM, H4 1-15aa peptide 100 nM, 3H-SAM 1 μM
pIC50: −log10 of the molar value.

Q: Request - read-out pIC50 | tested on PRMT5/MEP50 (Homo sapiens, UniProt O14744) | compound O=C(NC[C@H](O)CN1CCc2ccccc2C1)c1cn2c(n1)CC[C@H](C(F)(F)F)C2 [Example 121B]
Result: 5.30 to 6.00

Q: Also O=C(NC[C@H](O)CN1CCc2ccccc2C1)c1cn2cc(N3CC(F)(F)C3)ccc2n1 [Example 59] ?
Result: 5.30 to 6.00

Q: Also O=C(NC[C@H](O)CN1CCc2ccccc2C1)c1cn2cc(N3CCC(F)C3)ncc2n1 (some centres unmarked) [Example 73] ?
Result: 5.30 to 6.00
